Data provenance is the MegaScale stability set (Tsuboyama et al. 2023).

Would you mind telling me the reported folding stability dG of each entry?
B1: EHEE_rd2_1257 (parent)
chain: EEERTFTNEEEARKAKKEAEKRGLRVTVTKDGTTWRVRIG

# Variants of: B1
# assay_info: folding stability dG (cDNA display proteolysis); higher = more stable
# experimental_context: PBS, room temperature
Answers are plain numbers, in kJ/mol.

E1H 8.56
K21I 8.05

Please state, for each entry, its recorded folding stability dG.
1. V28W
2. E10K
3. V37M
4. T33S

1: 3.92; 2: 8.68; 3: 6.76; 4: 8.98
